Test system: K-562 leukemia
Assay: NCI-60 one-dose screen, 48 h (100 = growth as untreated, 0 = no growth, -100 = all killed)
Conditions: 10 µM unless noted
Compounds without any hit were thinned out: in the full panel of roughly 83,000, 20% have a hit.
Quick reference: growth of the listed items.
Provide the reading as a plain figure in %.

See these solved cases before continuing.
{"COMPOUND": "COc1ccc(S(=O)(=O)c2ccc(F)cc2)cc1", "UNIT_TEXT": "%", "growth": 115}
{"COMPOUND": "CCCCNC(=O)c1ccccc1C", "UNIT_TEXT": "%", "growth": 103}
{"COMPOUND": "CCOP(C)(=O)/C(Cc1ccc(OC)c(OC)c1)=N\\O (stereo unspecified)", "UNIT_TEXT": "%", "growth": 101}
{"COMPOUND": "CCOC(=O)C(N)Cc1cc(I)c(O)c(I)c1 (stereo unspecified)", "UNIT_TEXT": "%", "growth": 105}
{"COMPOUND": "O=c1[nH]c(=S)[nH]n1C(=S)n1[nH]c(=S)[nH]c1=O", "UNIT_TEXT": "%", "growth": 98.8}

Then there is this compound:
Task item: Need growth, item OCc1ccccc1F
Reply: 106

----------
Quick reference: growth of the listed items.
Tested on: MDA-MB-435 melanoma
Experiment: NCI-60 one-dose screen, 48 h (100 = growth as untreated, 0 = no growth, -100 = all killed)
Conditions: 10 µM unless noted
Compounds without any hit were thinned out: in the full panel of roughly 83,000, 20% have a hit. The source made the active and inactive calls. How the source made its calls: active means growth percent below 10; inactive means the rest.

See these solved cases before continuing.
{"COMPOUND": "CSc1nc(N)c(N)c(N)n1", "ASSAY_SYSTEM": "MDA-MB-435 melanoma", "growth": "112% (inactive)"}
{"COMPOUND": "CCN(CC)CCO/N=C1\\CC(c2ccc(OC)c(OC)c2)Oc2ccccc21 (stereo not drawn)", "ASSAY_SYSTEM": "MDA-MB-435 melanoma", "growth": "100% (inactive)"}

Task item: Request - read-out growth | tested on MDA-MB-435 melanoma | compound CC1CCC(=O)N1c1ccc(N)cc1 (stereo not drawn)
Reply: 109% (inactive)

Task item: Could you do the same for COC(=O)c1nc(N)nc(C(=O)OC)c1C(=O)c1ccc(F)cc1 , please?
Reply: 107% (inactive)

Task item: Could you do the same for CCNCc1ccccc1 , please?
Reply: 110% (inactive)

Task item: Could you do the same for O=C(c1ccccc1)C1(Br)CCCCC1 , please?
Reply: 105% (inactive)

Task item: Could you do the same for CCC(C)(O)CCC(C)(O)CC (stereo not drawn) , please?
Reply: 111% (inactive)

Task item: Could you do the same for CCc1ccc(OC(=O)CCl)cc1 , please?
Reply: 100% (inactive)

Task item: Could you do the same for CC(=O)/C(N=Nc1ccc(S(=O)(=O)c2ccc(N=N/C(C(C)=O)=C(/C)O)cc2)cc1)=C(\C)O , please?
Reply: 118% (inactive)

Task item: Could you do the same for CCCCC/C(C)=N\NC(N)=S , please?
Reply: 84.4% (inactive)

Task item: Could you do the same for COc1cc2oc3cc(=O)cc4oc(-c5ccccc5)cc(c2c2c1CCC(c1ccccc1)O2)c43 (stereo not drawn) , please?
Reply: 69.2% (inactive)

Task item: Could you do the same for Nc1nc(-c2ccccn2)cc(-c2cc(-c3ccccn3)nc(N)n2)n1 , please?
Reply: 119% (inactive)

Task item: Could you do the same for COc1ccc2nccc(Cl)c2c1 , please?
Reply: 108% (inactive)
